Values were extracted from patent US20250051321A1.

# assayed_target: ATX (Homo sapiens (Human), UniProt Q13822)
# experiment: ATX enzyme inhibition assay (Amplex UltraRed/choline oxidase/HRP, 16:0 Lyso PC substrate)
# Type: biochemical
# run_parameters: assay buffer pH 8.5; read-out: IC50 (nM) pH 8.5
Reported IC50 values for the following compounds.
Output spec: scalar in nM, unitless text.

# annotated cases, reported IC50 shown
compound	units_label	IC50
C[C@@H]1CN(CC(=O)N2CC(O)C2)CCN1c1cc(F)c2nc3c(c(N(C)c4nc(-c5ccc(F)cc5)c(C#N)s4)c2c1)COC3 [Example A31]	nM	26.9
CN(c1nc(-c2ccc(F)cc2)c(C#N)s1)c1c2c(nc3c(F)cc(N4CC5(CN(CC(=O)N6CC(C)(O)C6)C5)C4)cc13)COC2 [Example A34]	nM	446
CN(c1nc(-c2ccc(F)cc2)c(C#N)s1)c1c2c(nc3c(F)cc(N4CC5(CN(C(=O)C6CCOC6)C5)C4)cc13)C(O)CC2 (centres unmarked) [Example E5]	nM	21.8
Cc1cc(N2CCN(CC(=O)N3CC(O)C3)CC2)cc2c(N(C)c3nc(-c4ccc(F)cc4)c(C#N)s3)c3c(nc12)CCC3 [Example A14]	nM	228

Please examine the following record next.
Req: What value of IC50 has been recorded for this entry: CN(c1nc(-c2ccc(F)cc2)c(C#N)s1)c1c2c(nc3c(F)cc(N4CC5(CN(C(=O)C6(O)CCOC6)C5)C4)cc13)C(O)CC2 (centres unmarked) [Example E19]
Resp: 20.4
